Record: compiled IC50 on UniProt:P30530 from multiple reports.

| molecule | targetSystem | IC50 |
| --- | --- | --- |
| COC[C@H](C)Nc1ncc2c(Nc3ccc(C)nc3)ncc([C@H]3CC[C@H](O)CC3)c2n1 | UniProt:P30530 | 1000 to 10000 nM |
| COCC(C)Nc1ncc2c(-c3cccc(N4CCOCC4)c3)cc(C3CCC(O)CC3)n2n1 (stereo not shown) | UniProt:P30530 | ≤ 100 nM |
| COC[C@H](C)Nc1ncc2c(O[C@H]3C[C@@H](C(=O)N4CCN(C)CC4)C3)ncc([C@H]3CC[C@H](O)CC3)c2n1 | UniProt:P30530 | 100 to 1000 nM |

Input: Quick one: IC50 for `COc1cnc2c(Oc3ccc(NC(=O)c4cnc(C)c(C5=CCCC5)c4O)cc3F)ccnc2c1` ?
Output: ≤ 100 nM
